# System: UACC-257 melanoma
# assay: NCI-60 one-dose screen, 48 h (100 = growth as untreated, 0 = no growth, -100 = all killed)
# appliedConditions: 10 µM unless noted
Compounds without any hit were thinned out: in the full panel of roughly 83,000, 20% have a hit. Calls of active or inactive are those of the source. The calls were made as follows: active = growth percent below 10; inactive = the rest.
measureName: growth

- structureString: "CC(=O)[C@H]1CCC/C=C/[C@@H]2C[C@H](O)C[C@H]2[C@H](O)/C=C/C(=O)O1"
  assaySystem: "UACC-257 melanoma"
  growth: "24.1% (inactive)"
- structureString: "Cc1cccc(NC(=O)Nc2ccc(-c3ccc4c(c3)NC(=O)/C4=C\\c3ccc[nH]3)cc2)c1"
  assaySystem: "UACC-257 melanoma"
  growth: "102% (inactive)"
- structureString: "COc1cc(F)c(/C=C/c2cc(/C=C/c3cc(OC)c(OC)cc3F)on2)cc1OC"
  assaySystem: "UACC-257 melanoma"
  growth: "86.3% (inactive)"
- structureString: "N=C1C(c2nc3ccccc3s2)=C(O)CN1c1cc(Cl)cc(Cl)c1"
  assaySystem: "UACC-257 melanoma"
  growth: "74.4% (inactive)"
- structureString: "O=S(=O)(NCCNc1nccc(-c2c(-c3cccc(O)c3)nc3occn23)n1)c1ccccc1"
  assaySystem: "UACC-257 melanoma"
  growth: "17.7% (inactive)"

Give growth for CC1(C)CC[C@]23CC[C@]4(C)[C@H](CC[C@@H]5[C@@]6(C)CCCNC(C)(C)[C@@H]6CC[C@]54C)[C@H]2[C@H]1OC3
45.1% (inactive)

---

# Tested on: T-47D breast
# assay: NCI-60 one-dose screen, 48 h (100 = growth as untreated, 0 = no growth, -100 = all killed)
# appliedConditions: 10 µM unless noted
This is part of a sample that, as a whole, favours compounds with a hit. Of some 83,000 tested, about 20% had one in any assay.
Each record is given MET if its reported growth is strictly below 40%. Records at or above 40% are given NOT MET.

- compound: "OC(c1cccc(C(F)(F)F)c1)c1cnccc1NC1CCCCC1 (stereo not given)"
  classAssignment: "NOT MET"
- compound: "Cc1cc2c(C(=O)NCC#N)cccc2n1-c1nc2c(c(NCc3ccccc3)n1)CCCC2"
  classAssignment: "MET"
- compound: "CC1=C(C(=O)/C=C/c2c[nH]c3ccccc23)C(c2ccccc2)NC(=S)N1 (stereo not given)"
  classAssignment: "NOT MET"
- compound: "CC(=O)Nc1cccc(-c2ccc3c(c2)NC(=O)/C3=C\\c2ccc[nH]2)c1"
  classAssignment: "MET"
- compound: "COc1ccc(C(=O)CC#N)cc1"
  classAssignment: "NOT MET"

Please state whether growth is below 40% for COc1cc2c(cc1OC)C(=O)/C(=C/c1cc(C)c(O)c(C)c1)S2
NOT MET

Please state whether growth is below 40% for CCCCN1C=CCN(CCCC)C1
MET

---

# Test system: UACC-257 melanoma
# assay: NCI-60 one-dose screen, 48 h (100 = growth as untreated, 0 = no growth, -100 = all killed)
# appliedConditions: 10 µM unless noted
This is part of a sample that, as a whole, favours compounds with a hit. Of some 83,000 tested, about 20% had one in any assay.
measureName: growth (%)
Hi! Could you send only the number? It should be in %, unit omitted.

- compound: "CN(C)CC(O)c1ccc(/C=C/c2ccc(Cl)cc2)cc1 (stereo not given)"
  unitString: "%"
  growth: -81.2

Give growth for C/C(=N\NC(=O)CSc1nc2ccccc2c(=O)n1Cc1ccc(S(N)(=O)=O)cc1)c1ccc(F)cc1
107

Give growth for CC(Sc1nc2sc3c(c2c(=O)n1-c1ccc(Cl)cc1)CCCC3)C(=O)Nc1nc(-c2ccc(Br)cc2)cs1 (stereo not given)
93

---

// reported growth for each item listed
# Tested on: HCT-15 colon
# assay: NCI-60 one-dose screen, 48 h (100 = growth as untreated, 0 = no growth, -100 = all killed)
# appliedConditions: 10 µM unless noted
Compounds without any hit were thinned out: in the full panel of roughly 83,000, 20% have a hit. Activity calls are given as the source filed them. Rule for the calls: active = growth percent below 10; inactive = the rest.

Consider the reported growth for these compounds:
- compound: "COc1cc(NCCCCCNC(C)(C)C)c2ncccc2c1"
  growth: "91.2% (inactive)"
- compound: "Nc1c(C(=O)Nc2ccnc3ccccc23)sc2nc3c(cc12)CN(Cc1ccccc1)CC3"
  growth: "69.9% (inactive)"

Give growth for CNC(=O)c1cncc(Cn2nc(C)c(NC(=O)c3ccc(COc4ccc(C(F)(F)F)cc4C)cc3)c2C)c1
74.7% (inactive)

---

# System: SR leukemia
# assay: NCI-60 one-dose screen, 48 h (100 = growth as untreated, 0 = no growth, -100 = all killed)
# appliedConditions: 10 µM unless noted
Compounds without any hit were thinned out: in the full panel of roughly 83,000, 20% have a hit.
measureName: growth (%)
Hi! Could you send only the number? It should be in %, unit omitted.

Consider the reported growth for these compounds:
- compound: "Cc1ccc(/C=N/NC(=O)CSc2nc3ccccc3c(=O)n2Cc2ccc(S(N)(=O)=O)cc2)cc1"
  growth (%): 49.4
- compound: "CC(C)(C)CC(C)(C)n1nnnc1C(NC12CC3CC(CC(C3)C1)C2)c1ccccc1 (centres undefined)"
  growth (%): 80.3
- compound: "CC1(C)CC[C@]23CC[C@]4(C)[C@H](CC[C@@H]5[C@@]6(C)CCCNC(C)(C)[C@@H]6CC[C@]54C)[C@H]2[C@H]1OC3"
  growth (%): -30.2
- compound: "C/C(=N\\NC(=O)CSc1nc2ccccc2c(=O)n1Cc1ccc(S(N)(=O)=O)cc1)c1ccc(F)cc1"
  growth (%): 100

Give growth for O=[N+]([O-])CC(c1ccccc1)c1c[nH]c2ccccc12 (centres undefined)
20.2

Give growth for O=C(c1nc2ccccc2[nH]1)C1C(c2ccc(Br)cc2)C2CC3CCCC[C@H]3N2[C@@]12C(=O)Nc1cc(Cl)ccc12 (some centres undefined)
31.3

Give growth for COC(=O)C(OC(C)=O)C(OC(C)=O)c1ccc(OC)c(OC)c1 (centres undefined)
90.9

Give growth for O=C(Nc1cccc(C(=O)N2CCc3ccc(Cl)cc32)c1)c1ccco1
20.4

Give growth for CCOC(=O)CSc1nc2ccccc2c(=O)n1Cc1ccc(S(N)(=O)=O)cc1
99.6

---

# Tested on: OVCAR-5 ovarian
# assay: NCI-60 one-dose screen, 48 h (100 = growth as untreated, 0 = no growth, -100 = all killed)
# appliedConditions: 10 µM unless noted
About 83,000 compounds went through this panel and 20% of them were active in at least one assay; those are over-represented in the sample as a whole.
Use true (1) when the recorded growth is no lower than 60%; use false (0) when it is lower.

- compound: "CCCCCN1C=C/C(=C\\C(=O)N(C)c2ccccc2Br)c2ccccc21"
  classAssignment: "true (1)"

Please tell me: is the compound Cc1cc2cc3ccc(N(C)C)cc3nc2cc1N at or over 60% in terms of growth?
false (0)

---

# Tested on: CCRF-CEM leukemia
# assay: NCI-60 one-dose screen, 48 h
# appliedConditions: 10 µM unless noted
The panel holds about 83,000 compounds, 20% with a hit somewhere; the sample as a whole holds those more often. Active and inactive are the calls of the source. The calls were made as follows: active = growth percent below 10; inactive = the rest.
Pick one: active, inactive

Example entries begin here.
- compound: "CNC(=O)c1cccc(Cn2nc(C)c(NC(=O)c3ccc(COc4ccc(C(F)(F)F)cc4C)cc3)c2C)c1"
  classAssignment: "inactive"
- compound: "COc1ccc(C(=O)/C=C/c2cc3ccccc3n3nnnc23)cc1"
  classAssignment: "inactive"
- compound: "COc1ccccc1NC(=O)C1CC(c2ccc(F)cc2)=NO1 (centres undefined)"
  classAssignment: "inactive"
- compound: "CCCCCN1C=C/C(=C\\C(=O)N2CCCc3ccccc32)c2ccccc21"
  classAssignment: "inactive"
- compound: "COc1cc(/C=C/C(=O)c2nc3cc(F)ccc3nc2C)cc(OC)c1OC"
  classAssignment: "active"

GET /call?item= CCCCCCCCO/N=C\c1c2c(O)c3c(O)c(C)c4c(c3c1O)C(=O)C(C)(O/C=C\C(OC)C(C)C(OC(C)=O)C(C)C(O)C(C)C(O)C(C)/C=C\C=C(\C)C(=O)N2)O4 (centres undefined) returns the recorded outcome of this test.
inactive

GET /call?item= O=C(/C(=C\c1ccc([N+](=O)[O-])cc1)S(=O)Cc1ccc(Cl)cc1)c1ccc(Cl)cc1 (centres undefined) returns the recorded outcome of this test.
inactive

GET /call?item= Cc1ccccc1NS(=O)(=O)c1cccc(C(=O)Nc2ccc(Br)cc2)c1 returns the recorded outcome of this test.
inactive

GET /call?item= Oc1c(Cl)cc(Cl)c(Cl)c1CNCCNCc1c(O)c(Cl)cc(Cl)c1Cl returns the recorded outcome of this test.
active

---

# Tested on: IGROV1 ovarian
# assay: NCI-60 one-dose screen, 48 h (100 = growth as untreated, 0 = no growth, -100 = all killed)
# appliedConditions: 10 µM unless noted
# Method: Growth inhibition of the IGROV1 human tumor cell line is measured as a screen for anti-cancer activity. Cells are grown in 96 well plates and exposed to the test compound for 48 hours. Compounds are tested at a single concentration, which is 10^-5 M for most compounds. The reported endpoint is percent growth (GI% or GIPRCNT), where numbers from 0 - 100% represent growth inhibition, and numbers from -100% - 0 represent cell death. For example, a value of 40 represents 60% growth inhibition. […]
The panel holds about 83,000 compounds, 20% with a hit somewhere; the sample as a whole holds those more often.
// reported growth for each item listed
Hi! Could you send only the number? It should be in %, unit omitted.

Consider the reported growth for these compounds:
- compound: "C=C1C(=O)O[C@H]2[C@H]1CC/C(COC(=O)NCC(C)c1ccc(CC(C)C)cc1)=C\\CC[C@@]1(C)O[C@@H]21 (some centres undefined)"
  unitString: "%"
  growth: -69.5
- compound: "Cn1ccnc1C(=O)/C=C/c1ccc(CC(=O)Nc2ccc(F)cc2)cc1"
  unitString: "%"
  growth: 39.3
- compound: "COc1ccc(C(=O)C2C(C#N)C(C#N)C3c4ccccc4C=CN23)cc1 (centres undefined)"
  unitString: "%"
  growth: 81

Give growth for N#CC1=C(N)Oc2c(ccc3ccccc23)C1c1ccccc1Cl (centres undefined)
24.9

Give growth for Cc1c2cc[nH]c(=O)c2c(C)c2c1[nH]c1cc(OCCN3CCN(C)CC3)ccc12
20.2

Give growth for C[C@H]1[C@H](C)CC[C@]2(C(=O)Nc3ccc4ncccc4c3)CC[C@]3(C)C(=CC[C@@H]4[C@@]5(C)CCCNC(C)(C)[C@@H]5CC[C@]43C)[C@H]12
-73.3

Give growth for O=[N+]([O-])CC(c1ccccc1)c1c[nH]c2ccccc12 (centres undefined)
53.7

Give growth for COc1cccc(C(=O)NNc2nc(Cl)nc(N3CCN(C(c4ccccc4)c4ccccc4)CC3)n2)c1
2.85

Give growth for N#CC1C(C#N)C2c3ccccc3C=CN2C1C(=O)c1ccc(Br)cc1 (centres undefined)
102
